Would you kindly list increase of monomeric tau uptake into human iPSC-derived microglia for each of these binders?
biological target: monomeric P301S 2N4R tau, pHrodo-labelled (human, UniProt P10636 1-758, pHrodo Red maleimide label); test: cell-based or functional assay; further: test concentration or dose not given here
Sequence (P10636 other isoform, or with tags, fused parts or gaps P301S P301S): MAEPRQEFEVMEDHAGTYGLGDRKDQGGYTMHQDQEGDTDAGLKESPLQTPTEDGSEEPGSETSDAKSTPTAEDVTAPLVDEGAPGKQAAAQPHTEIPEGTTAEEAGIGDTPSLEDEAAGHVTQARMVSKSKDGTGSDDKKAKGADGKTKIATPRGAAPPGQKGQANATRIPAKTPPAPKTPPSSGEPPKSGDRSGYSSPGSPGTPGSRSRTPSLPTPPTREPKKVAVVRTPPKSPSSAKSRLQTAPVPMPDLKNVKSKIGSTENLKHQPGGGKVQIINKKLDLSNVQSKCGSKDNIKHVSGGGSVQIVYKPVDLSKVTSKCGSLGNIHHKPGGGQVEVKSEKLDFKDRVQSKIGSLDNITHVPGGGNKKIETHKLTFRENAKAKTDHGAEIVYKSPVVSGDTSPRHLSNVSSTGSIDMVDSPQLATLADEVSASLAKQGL

Enquiry: Field request: increase of monomeric tau uptake into human iPSC-derived microglia | item: #44_VH4VK4 humanised hIgG1 (antibody, V domains shown, also called VH4Vκ4; pVH/pVL) VH: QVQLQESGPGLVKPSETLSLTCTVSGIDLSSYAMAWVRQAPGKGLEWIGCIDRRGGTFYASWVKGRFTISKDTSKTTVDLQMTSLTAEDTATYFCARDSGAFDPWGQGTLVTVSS VL: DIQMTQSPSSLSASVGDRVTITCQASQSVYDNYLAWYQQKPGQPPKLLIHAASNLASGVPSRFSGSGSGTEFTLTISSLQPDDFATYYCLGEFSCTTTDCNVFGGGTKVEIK
Return: 59.4%

Enquiry: What value of measured increase of monomeric tau uptake into human iPSC-derived microglia is listed for #44 VH4VK3 humanised hIgG1 (antibody, V domains shown, also called VH4Vκ3; Clone VH4VK3 (D)) VH: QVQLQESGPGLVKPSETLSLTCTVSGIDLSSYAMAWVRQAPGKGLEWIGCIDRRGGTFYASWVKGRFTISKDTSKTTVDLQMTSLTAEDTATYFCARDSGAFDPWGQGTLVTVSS VL: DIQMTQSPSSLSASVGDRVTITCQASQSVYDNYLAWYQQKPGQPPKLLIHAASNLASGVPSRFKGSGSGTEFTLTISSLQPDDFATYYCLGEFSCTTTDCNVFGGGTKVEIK ?
Return: 60.2%

Enquiry: State the recorded increase of monomeric tau uptake into human iPSC-derived microglia for this entry: #44 VH3VK4 humanised hIgG1 (antibody, V domains shown, also called VH3Vκ4; Clone VH3VK4 (B)) VH: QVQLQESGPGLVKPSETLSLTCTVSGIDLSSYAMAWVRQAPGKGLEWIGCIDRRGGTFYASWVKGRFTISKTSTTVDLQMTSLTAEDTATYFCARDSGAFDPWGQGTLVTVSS VL: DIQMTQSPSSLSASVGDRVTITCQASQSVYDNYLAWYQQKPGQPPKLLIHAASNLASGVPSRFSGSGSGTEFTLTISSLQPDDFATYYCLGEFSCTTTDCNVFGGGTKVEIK
Return: 80.3%

Enquiry: increase of monomeric tau uptake into human iPSC-derived microglia for #44 VH4VK2 humanised hIgG1 (antibody, V domains shown, also called VH4Vκ2; Clone VH4VK2 (C)) VH: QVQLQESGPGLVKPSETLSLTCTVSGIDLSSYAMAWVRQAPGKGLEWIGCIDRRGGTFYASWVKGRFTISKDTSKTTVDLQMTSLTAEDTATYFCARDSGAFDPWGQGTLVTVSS VL: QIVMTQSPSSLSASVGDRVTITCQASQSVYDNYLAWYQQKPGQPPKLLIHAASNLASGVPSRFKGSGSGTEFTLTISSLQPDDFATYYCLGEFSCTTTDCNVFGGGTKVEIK ?
Return: 71.4%

Enquiry: Fill in the blank: the reported increase of monomeric tau uptake into human iPSC-derived microglia of #44 VH3VK3 humanised hIgG1 (antibody, V domains shown, also called VH3Vκ3; Clone VH3VK3 (A)) VH: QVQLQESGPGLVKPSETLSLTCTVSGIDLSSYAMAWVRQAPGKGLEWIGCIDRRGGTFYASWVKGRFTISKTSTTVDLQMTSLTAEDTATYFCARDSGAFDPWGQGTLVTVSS VL: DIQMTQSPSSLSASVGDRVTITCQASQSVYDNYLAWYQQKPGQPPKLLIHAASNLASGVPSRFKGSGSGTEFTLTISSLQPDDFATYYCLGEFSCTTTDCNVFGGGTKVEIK is ____.
Return: 16.1%
